Attribution: PubChem BioAssay AID248

# System: L1210 leukemia ip in BDF1 mice, survival T/C
# experiment_notes: NCI In Vivo Anticancer Drug Screen. Data for tumor model L1210 Leukemia (intraperitoneal) in B6D2F1 (BDF1) mice
# particulars: endpoint: mean survival time; dose: 200.0 mg/kg/injection; schedule: Q04DX003 (ip); vehicle: Klucel (hydroxypropylcellulose) (HPC); higher = longer survival
Toxic doses and inconclusive results are not listed.
observed_property: T/C

Consider the worked cases shown below.
compound	data_value
CC(=O)OC1CCCCCCC1	92 % of control
CC(=O)SC1CS(=O)(=O)CC1SC(C)=O (configuration not stated)	101 % of control
CCCCCCCCCCCCCCSc1ccc2ccccc2c1	86 % of control

Value wanted: T/C (L1210 leukemia ip in BDF1 mice, survival T/C) of entry CCCCCCCCCCCC(=O)NC(=S)Nc1ccc2ccccc2c1
86 % of control

Value wanted: T/C (L1210 leukemia ip in BDF1 mice, survival T/C) of entry CCOc1ccc(/C=C/[N+](=O)[O-])cc1
95 % of control

Value wanted: T/C (L1210 leukemia ip in BDF1 mice, survival T/C) of entry CC(=O)Nc1cccc2c1Cc1cc([N+](=O)[O-])ccc1-2
94 % of control

Value wanted: T/C (L1210 leukemia ip in BDF1 mice, survival T/C) of entry CC(C)c1ccc(C(=S)N2CCOCC2)cc1
101 % of control

Value wanted: T/C (L1210 leukemia ip in BDF1 mice, survival T/C) of entry CCCCCCCCCCCCCCCCCC(=O)CS(C)=O (configuration not stated)
91 % of control

Value wanted: T/C (L1210 leukemia ip in BDF1 mice, survival T/C) of entry O=C(O)CCC(NC(=O)OCc1ccccc1)C(=O)O (configuration not stated)
99 % of control
